test: Pharmacokinetics of the drug after single oral dose (volume of distribution, half lives); assay type: in vivo; conditions: human, plasma, oral; read-out: initial half life of the drug

- ITEM_SMILES: "Nc1cnc(-c2cc(Cl)cc(Cl)c2Cl)c(N)n1"
  half-life: "< 5 h"
